For each of the compounds below, state its Stimulation of [3H]AA release, No ACh (fraction of stimulation above the control).
Biological target: M1 muscarinic receptors expressed in CHO cells (Homo sapiens)
Construct: expressed in transfected cells; host or cells: CHO (CHO-hM1, stably transfected)
Sequence (P11229 whole entry): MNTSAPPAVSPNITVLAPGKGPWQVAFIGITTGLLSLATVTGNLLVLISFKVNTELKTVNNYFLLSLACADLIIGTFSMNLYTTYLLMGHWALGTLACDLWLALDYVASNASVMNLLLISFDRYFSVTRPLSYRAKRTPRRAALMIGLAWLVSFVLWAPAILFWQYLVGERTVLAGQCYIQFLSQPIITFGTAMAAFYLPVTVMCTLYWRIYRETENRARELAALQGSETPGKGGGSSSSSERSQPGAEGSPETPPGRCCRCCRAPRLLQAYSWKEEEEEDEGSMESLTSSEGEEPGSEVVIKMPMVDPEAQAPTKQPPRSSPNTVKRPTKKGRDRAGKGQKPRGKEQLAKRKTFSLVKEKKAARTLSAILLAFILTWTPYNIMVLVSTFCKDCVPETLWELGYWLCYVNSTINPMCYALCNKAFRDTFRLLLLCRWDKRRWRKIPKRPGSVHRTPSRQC
Experiment: [3H]-arachidonic acid release screen with and without ACh and modulator
Format: cell-based
Settings: 10 μM modulator, no ACh; Table 1
Structures can show the parent of a compound that is named as a salt.
Kindly provide the number alone.

The measured Stimulation of [3H]AA release, No ACh (fraction of stimulation above the control) that "O=C1C(=O)N(Cc2cc(F)c(F)c(F)c2)c2ccccc21" showed for M1 muscarinic receptors expressed in CHO cells (Homo sapiens) is 0.07

The measured Stimulation of [3H]AA release, No ACh (fraction of stimulation above the control) that "COc1c(Cl)cc(CN2C(=O)C(=O)c3ccccc32)cc1Cl" showed for M1 muscarinic receptors expressed in CHO cells (Homo sapiens) is 0.08

The measured Stimulation of [3H]AA release, No ACh (fraction of stimulation above the control) that "COc1c(F)cc(CN2C(=O)C(=O)c3ccccc32)cc1F" showed for M1 muscarinic receptors expressed in CHO cells (Homo sapiens) is 0.03

The measured Stimulation of [3H]AA release, No ACh (fraction of stimulation above the control) that CCCCc1oc2ccccc2c1C(=O)c1cc(I)c(O)c(I)c1 [Compound 3, reference compound] showed for M1 muscarinic receptors expressed in CHO cells (Homo sapiens) is 0.02

The measured Stimulation of [3H]AA release, No ACh (fraction of stimulation above the control) that "COc1ccc(CN2C(=O)C(=O)c3ccccc32)cc1F" showed for M1 muscarinic receptors expressed in CHO cells (Homo sapiens) is 0.04

The measured Stimulation of [3H]AA release, No ACh (fraction of stimulation above the control) that O=C1C(=O)N(Cc2ccc(O)cc2)c2ccccc21 [Compound 10, 1-(4-hydroxybenzyl)indoline-2,3-dione] showed for M1 muscarinic receptors expressed in CHO cells (Homo sapiens) is 0.01

The measured Stimulation of [3H]AA release, No ACh (fraction of stimulation above the control) that CCN(CC)CCOc1c(Br)cc(CN2C(=O)C(=O)c3ccccc32)cc1Br [Compound 8l, hydrochloride] showed for M1 muscarinic receptors expressed in CHO cells (Homo sapiens) is 0.04

The measured Stimulation of [3H]AA release, No ACh (fraction of stimulation above the control) that "CCCCc1oc2ccccc2c1C(=O)c1cc(I)c(OCCN(CC)C(C)=O)c(I)c1" showed for M1 muscarinic receptors expressed in CHO cells (Homo sapiens) is 0.17

The measured Stimulation of [3H]AA release, No ACh (fraction of stimulation above the control) that "CCCCc1oc2ccccc2c1C(=O)c1cc(I)c(OC)c(I)c1" showed for M1 muscarinic receptors expressed in CHO cells (Homo sapiens) is 0.06

The measured Stimulation of [3H]AA release, No ACh (fraction of stimulation above the control) that "COc1ccc(CN2C(=O)C(=O)c3ccccc32)cc1I" showed for M1 muscarinic receptors expressed in CHO cells (Homo sapiens) is 0.08

The measured Stimulation of [3H]AA release, No ACh (fraction of stimulation above the control) that "COc1ccc(CN2C(=O)C(=O)c3ccccc32)cc1Cl" showed for M1 muscarinic receptors expressed in CHO cells (Homo sapiens) is 0.08

The measured Stimulation of [3H]AA release, No ACh (fraction of stimulation above the control) that O=C1C(=O)N(Cc2ccc(Br)cc2)c2ccccc21 [VU0119498, reference compound] showed for M1 muscarinic receptors expressed in CHO cells (Homo sapiens) is 0.07

The measured Stimulation of [3H]AA release, No ACh (fraction of stimulation above the control) that "CCN(CC)CCOc1ccc(CN2C(=O)C(=O)c3ccccc32)cc1" showed for M1 muscarinic receptors expressed in CHO cells (Homo sapiens) is 0.02
